Where these numbers come from: patent US20170291890A1

Target: KDM5A (Homo sapiens, UniProt P29375)
Construct: C-terminal FLAG-tagged KDM5A^1-1090 was purchased from BPS Biosciences; FLAG (C); purchased BPS Biosciences
Sequence (P29375 1-1090): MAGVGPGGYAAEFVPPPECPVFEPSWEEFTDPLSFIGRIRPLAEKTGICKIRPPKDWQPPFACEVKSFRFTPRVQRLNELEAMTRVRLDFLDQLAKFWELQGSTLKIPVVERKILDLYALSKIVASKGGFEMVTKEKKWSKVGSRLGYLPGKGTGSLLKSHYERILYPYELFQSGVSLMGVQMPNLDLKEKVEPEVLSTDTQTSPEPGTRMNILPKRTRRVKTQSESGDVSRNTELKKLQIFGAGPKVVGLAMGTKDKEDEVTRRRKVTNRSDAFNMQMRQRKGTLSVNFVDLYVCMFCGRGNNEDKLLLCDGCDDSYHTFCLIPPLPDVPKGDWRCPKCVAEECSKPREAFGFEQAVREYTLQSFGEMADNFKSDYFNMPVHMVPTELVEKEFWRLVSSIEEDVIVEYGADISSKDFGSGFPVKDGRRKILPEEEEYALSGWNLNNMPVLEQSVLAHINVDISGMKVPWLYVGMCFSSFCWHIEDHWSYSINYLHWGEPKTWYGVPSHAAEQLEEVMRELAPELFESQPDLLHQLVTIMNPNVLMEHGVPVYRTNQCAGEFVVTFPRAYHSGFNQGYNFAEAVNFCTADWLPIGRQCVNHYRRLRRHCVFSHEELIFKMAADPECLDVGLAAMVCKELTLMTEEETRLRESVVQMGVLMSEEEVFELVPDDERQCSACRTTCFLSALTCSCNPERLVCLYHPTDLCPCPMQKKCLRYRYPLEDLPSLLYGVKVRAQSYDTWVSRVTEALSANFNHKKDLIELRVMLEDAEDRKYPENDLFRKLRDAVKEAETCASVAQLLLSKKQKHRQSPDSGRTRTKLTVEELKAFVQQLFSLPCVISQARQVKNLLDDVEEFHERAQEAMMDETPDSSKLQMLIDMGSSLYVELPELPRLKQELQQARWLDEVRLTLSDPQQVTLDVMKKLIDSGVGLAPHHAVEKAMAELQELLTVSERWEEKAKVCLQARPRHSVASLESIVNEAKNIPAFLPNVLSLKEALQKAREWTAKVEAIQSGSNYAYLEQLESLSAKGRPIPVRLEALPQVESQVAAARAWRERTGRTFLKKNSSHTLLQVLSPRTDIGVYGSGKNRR
Experiment: KDM5A Assay (SAMDI mass spectrometry demethylase assay)
Type: biochemical
Conditions: C-terminal FLAG-tagged KDM5A 1-1090; class symbols; read-out: 5A IC50
IC50 for assorted molecules

Cc1nn([C@H]2CNC[C@H]2C)cc1Nc1cnccc1C(=O)O (single isomer, unassigned)
1 to 100 nM
Cc1nn(-c2ccc(O)cc2)c(C)c1Nc1cnccc1C(=O)O
10000 to 100000 nM
Cc1nn(C2CCN(c3ccccc3)CC2)cc1Nc1cnccc1C(=O)O
1 to 100 nM
Cc1cn(-c2ccccc2)nc1Nc1cnccc1C(=O)O
1 to 100 nM

Req: Give a short answer stating reported IC50 for Cc1nn(-c2ccccc2C#N)cc1Nc1cnccc1C(=O)O .
Resp: 1000 to 10000 nM

Req: Give a short answer stating reported IC50 for N[C@H]1CC[C@H](n2nc(-c3ccccc3)cc2Nc2cnccc2C(=O)O)CC1 .
Resp: 1000 to 10000 nM

Req: Give a short answer stating reported IC50 for O=C(O)c1ccncc1Nc1cc(-c2cccc(Cl)c2)n(C2CCC3(CC2)OCCO3)n1 .
Resp: 1000 to 10000 nM

Req: Give a short answer stating reported IC50 for Cc1c(Nc2cnccc2C(=O)O)cnn1C1CCN(C2CCC2)CC1 .
Resp: 1000 to 10000 nM

---

pIC50 for assorted molecules
Molecular target: KDM4C (Homo sapiens)
Construct: N-terminal GST-tagged KDM4C^2-372 was purchased from BPS Biosciences; GST (N); purchased BPS Biosciences
Sequence (Q9H3R0 2-372): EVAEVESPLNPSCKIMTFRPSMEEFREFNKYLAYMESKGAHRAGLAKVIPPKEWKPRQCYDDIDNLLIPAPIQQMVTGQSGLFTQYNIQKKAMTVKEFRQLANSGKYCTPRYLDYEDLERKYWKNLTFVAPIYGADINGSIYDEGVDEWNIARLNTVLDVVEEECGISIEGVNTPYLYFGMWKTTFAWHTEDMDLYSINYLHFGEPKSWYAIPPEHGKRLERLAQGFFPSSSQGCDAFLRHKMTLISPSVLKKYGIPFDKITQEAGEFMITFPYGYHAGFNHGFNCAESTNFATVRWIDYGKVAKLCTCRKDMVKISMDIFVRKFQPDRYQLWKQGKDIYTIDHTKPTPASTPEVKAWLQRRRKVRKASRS
Assay: KDM4C Assay (SAMDI mass spectrometry demethylase assay)
Format: biochemical
Conditions: N-terminal GST-tagged KDM4C 2-372; class symbols; read-out: 4C IC50
pIC50: −log10 of the molar value.

Answered examples (2):
Cn1nc(-c2ccc(Cl)cc2)cc1Nc1cnccc1C(=O)O
5.00 to 6.00
CN1CCC(n2ncc(Nc3cnccc3C(=O)O)c2-c2ccccc2)C1 (stereo not drawn)
5.00 to 6.00

Req: Give a short answer stating reported pIC50 for Cn1cc(Nc2cnccc2C(=O)O)c(-c2ccccc2)n1 .
Resp: 6.00 to 7.00

---

Target: KDM5A (Homo sapiens)
Construct: C-terminal FLAG-tagged KDM5A^1-1090 was purchased from BPS Biosciences; FLAG (C); purchased BPS Biosciences
Sequence (P29375 1-1090): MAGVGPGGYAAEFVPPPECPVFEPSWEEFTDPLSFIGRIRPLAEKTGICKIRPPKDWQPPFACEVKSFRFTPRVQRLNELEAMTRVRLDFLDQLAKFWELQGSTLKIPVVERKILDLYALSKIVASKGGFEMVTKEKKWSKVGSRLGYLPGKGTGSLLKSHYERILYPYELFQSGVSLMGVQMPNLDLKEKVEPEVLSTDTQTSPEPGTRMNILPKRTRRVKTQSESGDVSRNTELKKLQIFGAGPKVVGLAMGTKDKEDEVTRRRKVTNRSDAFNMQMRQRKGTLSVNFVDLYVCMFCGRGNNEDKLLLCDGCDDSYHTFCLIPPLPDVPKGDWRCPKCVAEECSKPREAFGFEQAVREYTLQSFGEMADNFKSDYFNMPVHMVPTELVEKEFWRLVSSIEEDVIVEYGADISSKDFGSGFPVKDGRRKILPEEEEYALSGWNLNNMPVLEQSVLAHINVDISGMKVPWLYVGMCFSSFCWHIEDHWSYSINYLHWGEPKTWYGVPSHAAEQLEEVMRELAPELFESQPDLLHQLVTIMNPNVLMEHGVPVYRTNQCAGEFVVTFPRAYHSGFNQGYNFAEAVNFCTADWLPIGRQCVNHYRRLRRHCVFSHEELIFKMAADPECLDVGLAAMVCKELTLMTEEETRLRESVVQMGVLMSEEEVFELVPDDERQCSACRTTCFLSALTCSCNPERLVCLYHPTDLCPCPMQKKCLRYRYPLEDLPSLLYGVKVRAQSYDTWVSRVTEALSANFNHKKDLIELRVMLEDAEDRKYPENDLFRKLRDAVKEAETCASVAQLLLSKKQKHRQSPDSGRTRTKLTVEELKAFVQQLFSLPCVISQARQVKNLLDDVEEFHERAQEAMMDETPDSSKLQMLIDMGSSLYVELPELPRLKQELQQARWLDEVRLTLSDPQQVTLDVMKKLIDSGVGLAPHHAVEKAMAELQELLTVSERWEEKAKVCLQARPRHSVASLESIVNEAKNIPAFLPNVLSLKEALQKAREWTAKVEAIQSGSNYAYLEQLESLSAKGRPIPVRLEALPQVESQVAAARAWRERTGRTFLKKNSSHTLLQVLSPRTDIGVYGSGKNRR
Assay: KDM5A Assay (SAMDI mass spectrometry demethylase assay)
Format: biochemical
Settings: C-terminal FLAG-tagged KDM5A 1-1090; class symbols; read-out: 5A IC50
pIC50: −log10 of the molar value.
endpoint_name: pIC50

Req: Give a short answer stating reported pIC50 for Cc1nn(-c2ccccc2)c(C)c1Nc1cnccc1C(=O)O [Compound 77] .
Resp: 4.00 to 5.00

---

Biological target: KDM5A (Homo sapiens)
Construct: C-terminal FLAG-tagged KDM5A^1-1090 was purchased from BPS Biosciences; FLAG (C); purchased BPS Biosciences
Assay: KDM5A Assay (SAMDI mass spectrometry demethylase assay)
Format: biochemical
Details: C-terminal FLAG-tagged KDM5A 1-1090; class symbols; read-out: 5A IC50
IC50 for assorted molecules

Answered examples (3):
Cn1cc(-c2cccc(F)c2)c(Nc2cnccc2C(=O)O)n1
0.1 to 1 µM
Cc1cn(C2CCCNC2)nc1Nc1cnccc1C(=O)O (centres unmarked)
0.001 to 0.1 µM
O=C(O)c1ccncc1Nc1cc(-c2ccccc2)nn1C1CCOCC1
1 to 10 µM

Req: Give a short answer stating reported IC50 for Cn1ncc(-c2cccc(F)c2)c1Nc1cnccc1C(=O)O .
Resp: 10 to 100 µM

Req: Give a short answer stating reported IC50 for Cc1c(Nc2cnccc2C(=O)O)cnn1C1CCN(C(C)C)CC1 .
Resp: 1 to 10 µM

Req: Give a short answer stating reported IC50 for CN1CCC(n2ncc(Nc3cnccc3C(=O)O)c2-c2ccccc2)CC1 .
Resp: 1 to 10 µM

Req: Give a short answer stating reported IC50 for Cc1nn(C2CCCNCC2)cc1Nc1cnccc1C(=O)O (single isomer, unassigned) [Compound 114] .
Resp: 0.1 to 1 µM

Req: Give a short answer stating reported IC50 for O=C(O)c1ccncc1Nc1c(-c2ccccc2)cnn1CCN1CCC(F)(F)CC1 .
Resp: 1 to 10 µM

Req: Give a short answer stating reported IC50 for Cc1c(Nc2cnccc2C(=O)O)cnn1[C@H]1CC[C@@H](N)CC1 .
Resp: 1 to 10 µM

Req: Give a short answer stating reported IC50 for CCc1c(Nc2cnccc2C(=O)O)cnn1C1CCN(C)CC1 .
Resp: 1 to 10 µM

Req: Give a short answer stating reported IC50 for Cn1nc(-c2ccccc2)cc1Nc1cnccc1C(=O)O .
Resp: 0.001 to 0.1 µM
